# method: Toxicity against peritoneal macrophages assessed as survival induces at 68 uM
# Assay type: cell-based, Peritoneal macrophage cell
# condition.info: read-out: Survival
property.label: viability at 68 µM (%)

[
  {
    "compound": "C=C(C)[C@@H]1CC[C@]2(C=O)CC[C@]3(C)[C@H](CC[C@@H]4[C@@]5(C)CC[C@H](O)C(C)(C)[C@@H]5CC[C@]43C)[C@@H]12 [BETULINALDEHYDE]",
    "property.label": "viability at 68 µM",
    "unit.of.measure": "%",
    "measured": 80
  }
]

* * *

Documented cytotoxicity at 48 h, 25 µM across a set of compounds
# method: Cytotoxicity against human THP1 cells at 25 uM after 48 hrs by alamar blue assay
# Assay type: cell-based
# condition.info: THP-1 cells, read-out: INH

[
  {
    "smiles.structure": "CCC(=O)OC[C@]12CC[C@]3(C(C)C)C1=C1[C@H](C[C@@H]4[C@@]5(C)CC[C@H](OC(=O)CC)C(C)(C)[C@@H]5CC[C@@]4(C)[C@]1(C)CC2)n1c(=O)n(C)c(=O)n13",
    "unit.of.measure": "%",
    "cytotoxicity at 48 h, 25 µM": 15
  },
  {
    "smiles.structure": "CCn1c(=O)n2n(c1=O)[C@]1(C(C)C)CC[C@]3(COC(C)=O)CC[C@]4(C)C(=C31)[C@@H]2C[C@@H]1[C@@]2(C)CC[C@H](OC(C)=O)C(C)(C)[C@@H]2CC[C@]14C",
    "unit.of.measure": "%",
    "cytotoxicity at 48 h, 25 µM": 13
  },
  {
    "smiles.structure": "CC(=O)OC[C@]12CC[C@]3(C(C)C)C1=C1[C@H](C[C@@H]4[C@@]5(C)CC[C@H](OC(C)=O)C(C)(C)[C@@H]5CC[C@@]4(C)[C@]1(C)CC2)n1c(=O)[nH]c(=O)n13",
    "unit.of.measure": "%",
    "cytotoxicity at 48 h, 25 µM": 2.4
  },
  {
    "smiles.structure": "CC(=O)OC[C@]12CC[C@]3(C(C)C)C1=C1[C@H](C[C@@H]4[C@@]5(C)CC[C@H](OC(C)=O)C(C)(C)[C@@H]5CC[C@@]4(C)[C@]1(C)CC2)n1c(=O)n(C)c(=O)n13",
    "unit.of.measure": "%",
    "cytotoxicity at 48 h, 25 µM": 78
  }
]
